meta.source: PubChem BioAssay

// reported RAM network inhibition per item
Assay: RAM signaling pathway blockade in yeast – S. cerevisiae, Pdr1DBD-CYC8 efflux-inhibited sensitized strain, primary screen (AID 1298);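 further: 0% = DMSO untreated cells without growth and 100% = 10 µM 1-NA-PP1 full growth; higher means more yeast growth rescued from 5-FOA killing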
Conditions: S. cerevisiae cbk1-as DSE1-URA3 strain, 5-FOA growth OD615, 2 d; at 50 µM; hits give high values
Numeric answer only, unit % assumed.

Examples with answers:
| compound | resultValue |
| --- | --- |
| CCN(CC)CCOc1c(Br)ccc2c1sc1nc3n(c(=O)c12)CCC3 | 5.14 |
| O=C1NCCCC1C(=O)N1CCN(C(=O)c2ccco2)CC1 (stereo unspecified) | 0.31 |

Value of RAM network inhibition reported for the compound CCNc1nc(C)cc(COC)c1C#N is -0.06

Value of RAM network inhibition reported for the compound N#CCCN(CCC#N)C(=O)c1ccc(Cl)cc1 is 3.78

Value of RAM network inhibition reported for the compound O=C(NC1=NCCS1)C1CC2CCC1C2 (stereo unspecified) is 3.02

Value of RAM network inhibition reported for the compound CCn1nc(CC(=O)Nc2ccc(-n3cnnn3)c(C)c2)c2ccccc2c1=O is 5.97

Value of RAM network inhibition reported for the compound Fc1ccc(Br)cc1C1C=C(c2cccnc2)Nc2ncnn21 (stereo unspecified) is 21.7

Value of RAM network inhibition reported for the compound CNC(=O)c1c(NC(=O)c2nc3ccccc3s2)sc2c1CCC2 is 5.05
